Measured Activity accompanies every entry in the list below.
Species: Mus musculus
Assay: Skin irritant activity in NMRI mouse ear assessed as irritant dose 50 per ear after 24 hrs
Assay type: ADME, organism-based
Conditions: in vivo

testSmiles: C=C(C)[C@@]1(O)C[C@@H](C)[C@@]2(O)[C@H]([C@H]1OC(=O)/C=C/CCCCCCCCCCCCC)[C@@H]1O[C@]1(CO)[C@@H](O)[C@]1(O)C(=O)C(C)=C[C@H]12
Activity [nmol]: 0.035
//
testSmiles: C=C(C)[C@]12C[C@@H](C)[C@@]34O[C@](/C=C\C=C\CCCCC)(O[C@@H]1[C@@H]3[C@@H]1O[C@]1(CO)[C@@H](O)[C@]1(O)C(=O)C(C)=C[C@H]14)O2
Activity [nmol]: 0.15
//
testSmiles: C=C(C)[C@]12C[C@@H](C)[C@@]34O[C@](/C=C/CCCCCCCCCCCCC)(O[C@@H]1[C@@H]3[C@@H]1O[C@]1(COC(=O)CCCCCCCCCCCCCCC)[C@@H](O)[C@]1(O)C(=O)C(C)=C[C@H]14)O2
Activity [nmol]: 0.16
//
testSmiles: C=C(C)[C@@]1(O)C[C@@H](C)[C@@]2(O)[C@H]([C@H]1OC(=O)/C=C/CCCCCCCCCCCCC)[C@@H]1O[C@]1(COC(=O)CCCCCCCCCCCCCCC)[C@@H](O)[C@]1(O)C(=O)C(C)=C[C@H]12
Activity [nmol]: 20
//
testSmiles: C=C(C)[C@]12C[C@@H](C)[C@@]34O[C@](/C=C/CCCCCCCCCCCCC)(O[C@@H]1[C@@H]3[C@@H]1O[C@]1(CO)[C@@H](O)[C@]1(O)C(=O)C(C)=C[C@H]14)O2
Activity [nmol]: 0.02

----------
Each entry below carries its reported survival at 4032 h.
Assay: Tumor promoting activity of DMBA-initiated tumor in back skin of NMRI mouse assessed as survival rate at 5 nmol twice weekly measured after 24 weeks
Assay type: organism-based, Zone of skin
Conditions: in vivo, topical or ocular
reportedMetric: survival at 4032 h

molecule: C=C(C)[C@]12C[C@@H](C)[C@@]34O[C@](/C=C/CCCCCCCCCCCCC)(O[C@@H]1[C@@H]3[C@@H]1O[C@]1(CO)[C@@H](O)[C@]1(O)C(=O)C(C)=C[C@H]14)O2
assayResult: 100%
--
molecule: C=C(C)[C@]12O[C@@]34/C=C/CCCCCCCCCCC[C@H](C)[C@H]5[C@H](C)C(=O)[C@@]6(O)[C@H](O)[C@@]7(CO)O[C@H]7[C@@H]([C@H]1O3)[C@](O4)([C@H](C)[C@H]2OC(C)=O)[C@H]56
assayResult: 99%
--
molecule: C=C(C)[C@]12O[C@@]34/C=C/CCCCCCCCCCCC(C)[C@H]5[C@H](C)C(=O)[C@@]6(O)[C@H](O)[C@@]7(CO)O[C@H]7[C@@H]([C@H]1O3)[C@](O4)([C@H](C)[C@H]2O)[C@H]56 (stereo partly drawn)
assayResult: 94%

----------
Assay: Tumor promoting activity of DMBA-initiated tumor in back skin of NMRI mouse assessed as survival rate at 10 nmol twice weekly measured after 24 weeks
Assay type: organism-based, Zone of skin
Conditions: in vivo, topical or ocular
Entries and their survival at 4032 h values follow.
reportedMetric: survival at 4032 h (%)

testSmiles: C=C(C)[C@]12C[C@@H](C)[C@@]34O[C@](CCCCCCCCC)(O[C@@H]1[C@@H]3[C@@H]1O[C@]1(CO)[C@@H](O)[C@]1(O)C(=O)C(C)=C[C@H]14)O2
assayResult: 93
--
testSmiles: C=C(C)[C@]12C[C@@H](C)[C@@]34O[C@](/C=C/CCCCCCCCCCCCC)(O[C@@H]1[C@@H]3[C@@H]1O[C@]1(CO)[C@@H](O)[C@]1(O)C(=O)C(C)=C[C@H]14)O2
assayResult: 94
